- protocol-text: Pharmacokinetic evaluation in rats
- Assay type: in vivo, Sprague-Dawley rats
- experimental-parameters: male, Sprague-Dawley, plasma; rat, PO, 10 mg/kg single dose
readout-type: Tmax
Put your answer as a value accompanied by its unit after it.

Reference set, count: 3
compound: [2H]c1cccc(Oc2ccc3c(O)c(C(=O)NC([2H])([2H])C(=O)O)nc(C)c3c2)c1 [Compound 49]
Tmax: 2.67 h
--
compound: Cc1nc(C(=O)NCC(=O)O)c(O)c2ccc(Oc3ccccc3)cc12 [FG-4592, reference compound]
Tmax: 2.83 h
--
compound: [2H]C([2H])(NC(=O)c1nc(C)c2cc(Oc3ccccc3)ccc2c1O)C(=O)O [Compound 11]
Tmax: 4 h

Here is another compound to look at.
What Tmax value was documented for this compound, [2H]c1c([2H])c([2H])c(Oc2ccc3c(O)c(C(=O)NCC(=O)O)nc(C)c3c2)c([2H])c1[2H] [Compound 32] ?
0.83 h

###

- protocol-text: Pharmacokinetic evaluation in rats
- Assay type: in vivo, Sprague-Dawley rats
- experimental-parameters: male, Sprague-Dawley, rat, in vivo, iv, 3 mg/kg
- Description: 6 male Sprague-Dawley rats (7-8 weeks old, and weighing approximately 210 g) were divided into 2 groups with 3 rats in each group. […] Immediately after the collection of the blood sample, the test tube was gently inverted at least 5 times to ensure sufficient mixing and then placed on ice. […] The concentration of the compound of the present disclosure in plasma was determined by LC-MS/MS. […]
The following molecules are shown together with reported half-life values.
Kindly provide the numeric value in h only, without the unit symbol.

molecule: [2H]c1c([2H])c([2H])c(Oc2ccc3c(O)c(C(=O)NCC(=O)O)nc(C)c3c2)c([2H])c1[2H]
half-life (h): 2.49

molecule: Cc1nc(C(=O)NCC(=O)O)c(O)c2ccc(Oc3ccccc3)cc12 [FG-4592, reference compound]
half-life (h): 2.08

molecule: [2H]c1cccc(Oc2ccc3c(O)c(C(=O)NC([2H])([2H])C(=O)O)nc(C)c3c2)c1
half-life (h): 2.89

What half-life value was documented for this molecule, [2H]C([2H])(NC(=O)c1nc(C)c2cc(Oc3ccccc3)ccc2c1O)C(=O)O ?
2.43

###

- protocol-text: Pharmacokinetic evaluation in rats
- Format: in vivo, Sprague-Dawley rats
- experimental-parameters: male, Sprague-Dawley; rat, PO, 10 mg/kg single dose, plasma
readout-type: Cmax (ng/mL)
Kindly provide the numeric value in ng/mL only, without the unit symbol.

molecule: [2H]c1cccc(Oc2ccc3c(O)c(C(=O)NC([2H])([2H])C(=O)O)nc(C)c3c2)c1 [Compound 49]
Cmax [ng/mL]: 25400
//
molecule: [2H]C([2H])(NC(=O)c1nc(C)c2cc(Oc3ccccc3)ccc2c1O)C(=O)O [Compound 11]
Cmax [ng/mL]: 24600
//
molecule: Cc1nc(C(=O)NCC(=O)O)c(O)c2ccc(Oc3ccccc3)cc12 [FG-4592, reference compound]
Cmax [ng/mL]: 22100

Here is another molecule to look at.
What Cmax value was documented for this molecule, [2H]c1c([2H])c([2H])c(Oc2ccc3c(O)c(C(=O)NCC(=O)O)nc(C)c3c2)c([2H])c1[2H] [Compound 32] ?
17700

###

- protocol-text: Pharmacokinetic evaluation in rats
- Format: in vivo, Sprague-Dawley rats
- experimental-parameters: male, Sprague-Dawley, plasma; rat, IV, 3 mg/kg single dose
The following compounds are shown together with reported AUC(0-inf) values.
Kindly provide the numeric value in ng·h/mL only, without the unit symbol.

What AUC(0-inf) value was documented for this compound, [2H]c1cccc(Oc2ccc3c(O)c(C(=O)NC([2H])([2H])C(=O)O)nc(C)c3c2)c1 [Compound 49] ?
49500
